- TEST: Solubility in screen solvents derived from loading in solvent and dissolution
- Format: physicochemical
- CONDITIONS: nitromethane, organic solvent or mixture, thermodynamic from solid
MEASURED_ENDPOINT: solubility

Q. Entry COc1ccc2c(O[C@@H]3C[C@H]4C(=O)N[C@]5(C(=O)NS(=O)(=O)C6CC6)C[C@H]5/C=C\CCCCC[C@H](CC(=O)N5CCCC(F)(F)C5)C(=O)N4C3)cc(-c3nc(C(C)C)cs3)nc2c1C has what solubility?
A. < 50 mg/mL

###

- TEST: Solubility in screen solvents derived from loading in solvent and dissolution
- Assay type: physicochemical
- CONDITIONS: 1-Methoxy-2-propanol, organic solvent or mixture, thermodynamic from solid
- Source text: They were selected based on a diverse range of properties including dielectric constants, boiling points, and H-bonding that are important to crystallization and crystal-form discovery. The values in TABLE 2 are derived from ACH-0142684 loading in solvent and dissolution. The symbol † indicates the solubility value is found in TABLE 1.
MEASURED_ENDPOINT: solubility

Q. solubility for COc1ccc2c(O[C@@H]3C[C@H]4C(=O)N[C@]5(C(=O)NS(=O)(=O)C6CC6)C[C@H]5/C=C\CCCCC[C@H](CC(=O)N5CCCC(F)(F)C5)C(=O)N4C3)cc(-c3nc(C(C)C)cs3)nc2c1C ?
A. > 80 mg/mL

###

- TEST: Solubility in screen solvents derived from loading in solvent and dissolution
- Type: physicochemical
- CONDITIONS: Dioxane: 10 vol % Water, organic solvent or mixture, thermodynamic from solid
- From the text: They were selected based on a diverse range of properties including dielectric constants, boiling points, and H-bonding that are important to crystallization and crystal-form discovery. The values in TABLE 2 are derived from ACH-0142684 loading in solvent and dissolution. The symbol † indicates the solubility value is found in TABLE 1.
MEASURED_ENDPOINT: solubility

Q. Need solubility of COc1ccc2c(O[C@@H]3C[C@H]4C(=O)N[C@]5(C(=O)NS(=O)(=O)C6CC6)C[C@H]5/C=C\CCCCC[C@H](CC(=O)N5CCCC(F)(F)C5)C(=O)N4C3)cc(-c3nc(C(C)C)cs3)nc2c1C , thanks.
A. > 93 mg/mL

###

- TEST: Solubility in screen solvents derived from loading in solvent and dissolution
- Format: physicochemical
- CONDITIONS: Cyclohexanone, organic solvent or mixture, thermodynamic from solid
MEASURED_ENDPOINT: solubility

Q. Given the entry COc1ccc2c(O[C@@H]3C[C@H]4C(=O)N[C@]5(C(=O)NS(=O)(=O)C6CC6)C[C@H]5/C=C\CCCCC[C@H](CC(=O)N5CCCC(F)(F)C5)C(=O)N4C3)cc(-c3nc(C(C)C)cs3)nc2c1C , report its measured solubility.
A. > 87 mg/mL

###

- TEST: Solubility in screen solvents derived from loading in solvent and dissolution
- Assay type: physicochemical
- CONDITIONS: 1-Butanol, organic solvent or mixture, thermodynamic from solid
MEASURED_ENDPOINT: solubility

Q. Requested field: solubility. Item: COc1ccc2c(O[C@@H]3C[C@H]4C(=O)N[C@]5(C(=O)NS(=O)(=O)C6CC6)C[C@H]5/C=C\CCCCC[C@H](CC(=O)N5CCCC(F)(F)C5)C(=O)N4C3)cc(-c3nc(C(C)C)cs3)nc2c1C
A. < 50 mg/mL
